Please provide measured IC50 for the entries that follow.
# System: human lung cancer strain NCI-H441
# Format: cell-based
Where a SMILES comes first, the peptide text is derived from it. Bridges are numbered along the chain shown (N, C = ends). [ ]: non-standard residue; d: D form. hPhe(3-Cl-4-CF3) = N[C@@H](CCc1ccc(C(F)(F)F)c(Cl)c1)C(=O)O; NPrPhe(4-CF3) = CCCN[C@@H](Cc1ccc(C(F)(F)F)cc1)C(=O)O; NMeGly(cPent) = CN[C@H](C(=O)O)C1CCCC1; Hyp = O=C(O)[C@@H]1C[C@@H](O)CN1; NMeD = CN[C@@H](CC(=O)O)C(=O)O; NMeL = CN[C@@H](CC(C)C)C(=O)O; NMeA = CN[C@@H](C)C(=O)O; Ac5c = NC1(C(=O)O)CCCC1; Aze = O=C(O)[C@@H]1CCN1; Sar = CNCC(=O)O
Answers are plain numbers, in nM.

A selection of reference data follows.
Challenge: # input compound: CCCN1C(=O)[C@@H]2CCN2C(=O)[C@H](C)N(C)C(=O)[C@H]([C@@H](C)CC)NC(=O)[C@H](CC(C)C)N(C)C(=O)C[C@@H](C(=O)N(C)C)N(C)C(=O)[C@H](C2CCCC2)N(C)C(=O)C2(CCCC2)NC(=O)[C@@H]2C[C@@H](OCC)CN2C(=O)[C@H](CCc2ccc(C(F)(F)F)c(Cl)c2)NC(=O)CN(C)C(=O)[C@@H]1Cc1ccc(C(F)(F)F)cc1 [PP0438] ([NMeL]I[NMeA][Aze][NPrPhe(4-CF3)][Sar][hPhe(3-Cl-4-CF3)][Hyp](Et)[Ac5c][NMeGly(cPent)][NMeD]-NMe2; lactam N-11) ; wanted: its IC50
Response given: 1

Challenge: Item under review: CCC[C@H]1C(=O)N[C@@H]([C@@H](C)CC)C(=O)N(C)CC(=O)N(C)[C@H]2C/C=C\CCN(C2=O)[C@@H](Cc2ccc(C(F)(F)F)cc2)C(=O)N(C)CC(=O)N[C@@H](CCc2cc(F)c(C(F)(F)F)c(F)c2)C(=O)N2C[C@H](F)C[C@H]2C(=O)NC2(CC(C)(C)C2)C(=O)N(C)[C@@H](C2CCCC2)C(=O)N(C)[C@H](C(=O)N(C)C)CC(=O)N1C [PP1689] . Reported IC50?
Response given: 1.4

Challenge: State the recorded IC50 for this entry: CCO[C@@H]1C[C@H]2C(=O)NC3(CC(C)(C)C3)C(=O)N(C)[C@@H](C3CCCC3)C(=O)N(C)[C@H](C(=O)N(C)CC)CC(=O)N(C)[C@@H](CC3CC3)C(=O)N[C@@H]([C@@H](C)CC)C(=O)N(C)CC(=O)N(C)[C@H]3C/C=C\CCN(C3=O)[C@@H](Cc3ccc(C(F)(F)F)cc3)C(=O)N(C)CC(=O)N[C@@H](CCc3cc(F)c(C(F)(F)F)c(F)c3)C(=O)N2C1 [PP1648]
Response given: 2.1

Challenge: // lookup IC50 for CCCN(C)C(=O)[C@@H]1CC(=O)N(C)[C@@H](C)C(=O)N[C@@H]([C@@H](C)CC)C(=O)N(C)CC(=O)N(C)[C@H]2C/C=C\CCN(C2=O)[C@@H](Cc2ccc(C(F)(F)F)cc2)C(=O)N(C)CC(=O)N[C@@H](CCc2cc(F)c(C(F)(F)F)c(F)c2)C(=O)N2C[C@H](OCC)C[C@H]2C(=O)NC2(CC(F)(F)C2)C(=O)N(C)[C@@H](C2CCCC2)C(=O)N1C [PP1731]
Response given: 7.4

Kindly review the next compound as well.
Challenge: Sample CC[C@H](C)[C@@H]1NC(=O)[C@H](CC2CC2)N(C)C(=O)C[C@@H](C(=O)N(C)CC)N(C)C(=O)[C@H](C2CCCC2)N(C)C(=O)C2(CC(C)(C)C2)NC(=O)[C@@H]2C[C@@H](F)CN2C(=O)[C@H](CCc2cc(F)c(C(F)(F)F)c(F)c2)NC(=O)CN(C)C(=O)[C@H](Cc2ccc(C)cc2)N2CC/C=C\C[C@@H](C2=O)N(C)C(=O)CN(C)C1=O [PP2802] — what was its IC50?
Response given: 5.5
